Molecular target: catalytic domain of human Bub1 (amino acids 704-1085) (Homo sapiens, UniProt O43683)
Sequence (O43683 704-1085): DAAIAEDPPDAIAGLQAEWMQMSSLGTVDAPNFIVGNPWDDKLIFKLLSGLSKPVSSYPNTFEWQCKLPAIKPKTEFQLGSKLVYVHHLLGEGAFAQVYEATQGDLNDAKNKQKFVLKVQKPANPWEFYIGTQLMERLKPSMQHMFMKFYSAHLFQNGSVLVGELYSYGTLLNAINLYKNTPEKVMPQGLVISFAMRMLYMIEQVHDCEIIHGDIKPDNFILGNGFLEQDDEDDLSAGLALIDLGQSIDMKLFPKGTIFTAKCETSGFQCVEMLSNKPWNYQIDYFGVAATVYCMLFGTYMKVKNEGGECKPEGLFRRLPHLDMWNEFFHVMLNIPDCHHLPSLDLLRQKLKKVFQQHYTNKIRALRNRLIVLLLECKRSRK
pIC50: −log10 of the molar value.
Listed compounds paired with reported pIC50

Cc1nsc(Nc2cnc3ccccc3n2)c1C(=O)Nc1cccc(C(=O)N[C@H](C(=O)O)[C@@H](C)OC(C)(C)C)c1 [Example 104] | ≤ 4.70
Cc1nsc(Nc2cnc(C(F)(F)F)cn2)c1C(=O)Nc1ccc(OCCCNCCC(F)(F)F)nc1 [Example 294] | < 4.70
Cc1nsc(Nc2cnc3ccccc3n2)c1C(=O)Nc1ccc(OC2CCCNC2)nc1 (stereo not drawn) [Example 32] | ≤ 4.70
Cc1nsc(Nc2cnc3ccccc3n2)c1C(=O)Nc1cccc(-c2nc(C(C)(C)C)no2)c1 [Example 108] | ≤ 4.70

[in] Name the recorded pIC50 of the item Cc1nsc(Nc2cnc(C(F)(F)F)cn2)c1C(=O)Nc1ccc(OC[C@@H]2CCCN(CC(F)F)C2)nc1 [Example 375] in your answer.
[out] < 4.70

[in] Identify measured pIC50 corresponding to Cc1cc(C)n(-c2ccccc2NC(=O)c2c(C)nsc2Nc2cnc3ccccc3n2)n1 [Example 243]
[out] < 4.70

====

Biological target: catalytic domain of human Bub1 (amino acids 704-1085) (Homo sapiens)
Construct: catalytic domain of human Bub1 (amino acids 704-1085); His6 (N); made in house; host or cells: insect cells (Hi5)
Experiment: Bub1 kinase assay (TR-FRET)
Format: biochemical
Settings: 10 μM ATP, avg, read-out: Bub1 avg (IC50 [mol/l])
pIC50: −log10 of the molar value.
Assay Endpoint: pIC50

# example entries with known answers
Cc1nsc(Nc2cnc(C(F)(F)F)cn2)c1C(=O)Nc1ccc(OCC2CCCN(CC(F)F)C2)nc1 (stereo not shown) | ≤ 4.70
Cc1nsc(Nc2cncc(C(F)(F)F)n2)c1C(=O)Nc1ccc(OC2CCN(C(=O)OC(C)(C)C)CC2)nc1 | ≤ 4.70
Cc1nsc(Nc2cnc3ccccc3n2)c1C(=O)Nc1cccc(C(=O)N2CCCC2)c1 | 4.74
Cc1nsc(Nc2cnc(C(F)(F)F)cn2)c1C(=O)Nc1ccc(OCC2CCCN(CCF)C2)nc1 (stereo not shown) | ≤ 4.70
Cc1nsc(Nc2cncc(C(F)(F)F)n2)c1C(=O)Nc1ccc(OC2CCN(CCF)CC2)c(F)c1 | < 4.70

[in] Give catalytic domain of human Bub1 (amino acids 704-1085) (Homo sapiens) pIC50 for the following molecule: `Cc1nsc(Nc2cncc(C(F)(F)F)n2)c1C(=O)Nc1ccc(OC2CCN(CCF)CC2)nc1`
[out] ≤ 4.70

[in] Please tell me the measured pIC50 for `Cc1nsc(Nc2cnc(C(F)(F)F)cn2)c1C(=O)Nc1ccc(F)c(O[C@@H]2CCN(CC(F)F)C2)c1` ; system: catalytic domain of human Bub1 (amino acids 704-1085) (Homo sapiens).
[out] < 4.70

====

System: human cervical tumor cell line HeLa (ATCC CCL-2)
Assay: SAC-Formation - Nocodazole-Induced Assay
Assay type: cell-based
Conditions: Homo sapiens, HeLa, 24 h, HeLa cells, nocodazole 0.1 μg/ml together with test compound, decrease of mitotic cells (phospho-histone H3 Ser10)
From the text: The spindle assembly checkpoint assures the proper segregation of chromosomes during mitosis. Upon entry into mitosis, chromosomes begin to condensate which is accompanied by the phosphorylation of histone H3 on serine 10. Dephosphorylation of histone H3 on serine 10 begins in anaphase and ends at early telophase. […] The mitotic breakthrough can be detected by the decrease of cells with phosphorylation of histone H3 on serine 10. […]
Assay Endpoint: IC50 (nM)

Cc1nsc(Nc2cnc3ccccc3n2)c1C(=O)Nc1cccc(C(=O)OC(C)(C)C)c1 | 29

1. Cc1nsc(Nc2cnc(C(F)(F)F)cn2)c1C(=O)Nc1ccc(OCCNC(=O)OC(C)(C)C)nc1
2. Cc1nsc(Nc2cnc3ccccc3n2)c1C(=O)Nc1ccc(NC(=O)C(C)(C)C)cc1
3. Cc1nsc(Nc2cnc(C(F)(F)F)cn2)c1C(=O)Nc1ccc(OC2CCCN(CC(F)F)C2)nc1 (stereo not shown)
[in] # rank_down: sort by IC50, max first // rank by listing labels in the order requested
[out] 2, 1, 3

These entries and their values trace back to patent US20170334899A1.
